# key: entry, value: IC50
- Test system: MiaPaca-2 cells
- experimentalProtocol: MiaPaca-2 cell proliferation assay (resazurin)
- Format: cell-based
- particulars: Homo sapiens, MIA PaCa-2; Table 2, inhibition of cell proliferation; read-out: MiaPaca-2

Worked examples follow.
CNC(=O)c1cc(-c2nc(N[C@H](C)CO)cc(-c3cc(NC(=O)c4cc(C(F)(F)F)cnn4)ccc3C)n2)ccn1 = 1000 to 10000 nM
CNC(=O)c1cc(-c2cc(-c3cc(NC(=O)c4cc(C(F)(F)F)cnn4)ccc3C)nc(NCCO)n2)ccn1 = 100 to 500 nM
CNC(=O)c1cc(-c2cc(-c3cc(NC(=O)c4cc(C(C)(F)F)cnn4)ccc3C)cc(N[C@H](C)CO)n2)ccn1 = 100 to 500 nM
CNC(=O)c1cc(-c2cc(-c3cc(NC(=O)c4cc(C(C)(F)F)cnn4)ccc3C)ccn2)ccn1 = 100 to 500 nM

Query :: Given the compound CNC(=O)c1cc(-c2cc(-c3cc(NC(=N)c4cc(C(F)(F)F)cnn4)ccc3C)ccn2)ccn1 , what is its reported IC50?
Result :: 1000 to 10000 nM

Query :: Given the compound CNC(=O)c1cc(-c2cc(-c3cc(NC(=O)c4cc(C5CC5)cnn4)ccc3C)ccn2)ccn1 , what is its reported IC50?
Result :: 100 to 500 nM

Query :: Given the compound Cc1ccc(NC(=O)c2ccc(C(F)(F)F)nc2)cc1-c1ccnc(-c2ccnc(C(=O)NC3CC3)c2)c1 , what is its reported IC50?
Result :: 500 to 1000 nM

Query :: Given the compound CNC(=O)c1cc(-c2cc(N)cc(-c3cc(NC(=O)c4cc(C(F)(F)F)cnn4)ccc3C)c2)ccn1 , what is its reported IC50?
Result :: 500 to 1000 nM
